tested on: MCF7; experiment: Cytotoxicity against human MCF7 cells after 96 hrs by SRB assay; assay type: functional, cell-based; details: MCF7, 96 h
The label Fulfilled is reserved for EC50 strictly under 10 µM; Not fulfilled covers values equal to or above it.

// known answers, use as guide
C=C(C)[C@@H]1CC[C@]2(CO)CC[C@]3(C)[C@H](CC[C@@H]4[C@@]5(C)CC[C@H](OC(C)=O)C(C)(C)[C@@H]5CC[C@]43C)[C@@H]12; Not fulfilled
C=C(C)[C@@H]1CC[C@]2(COC(=O)NCC)CC[C@]3(C)[C@H](CC[C@@H]4[C@@]5(C)CC[C@H](OC(=O)C(N)=O)C(C)(C)[C@@H]5CC[C@]43C)[C@@H]12; Not fulfilled
C=C(C)[C@@H]1CC[C@]2(COC(=O)NCCCCCC)CC[C@]3(C)[C@H](CC[C@@H]4[C@@]5(C)CC[C@H](OC(=O)C(N)=O)C(C)(C)[C@@H]5CC[C@]43C)[C@@H]12; Fulfilled
C=C(C)[C@@H]1CC[C@]2(COC(=O)NCCC)CC[C@]3(C)[C@H](CC[C@@H]4[C@@]5(C)CC[C@H](OC(=O)C(N)=O)C(C)(C)[C@@H]5CC[C@]43C)[C@@H]12; Not fulfilled

Next molecule, please.
Exercise: Lab note: EC50 threshold 10 µM. Does this molecule come in strictly under it? C=C(C)[C@@H]1CC[C@]2(COC(=O)Nc3ccccc3)CC[C@]3(C)[C@H](CC[C@@H]4[C@@]5(C)CC[C@H](OC(=O)C(N)=O)C(C)(C)[C@@H]5CC[C@]43C)[C@@H]12
Key: Not fulfilled

* * *

system: HT-29; assay: Cytotoxicity against human HT-29 cells after 96 hrs by SRB assay; format: functional, cell-based; details: HT-29, 96 h
recorded_metric: EC50 (µM)
// return numeric value only (unit: µM, not printed)

Example cases with answers are listed next.
C=C(C)[C@@H]1CC[C@]2(COC(=O)NCCC)CC[C@]3(C)[C@H](CC[C@@H]4[C@@]5(C)CC[C@H](OC(=O)C(N)=O)C(C)(C)[C@@H]5CC[C@]43C)[C@@H]12; 12.8
C=C(C)[C@@H]1CC[C@]2(COC(=O)Nc3ccccc3)CC[C@]3(C)[C@H](CC[C@@H]4[C@@]5(C)CC[C@H](OC(=O)C(N)=O)C(C)(C)[C@@H]5CC[C@]43C)[C@@H]12; 21.4
C=C(C)[C@@H]1CC[C@]2(COC(=O)NCCCC)CC[C@]3(C)[C@H](CC[C@@H]4[C@@]5(C)CC[C@H](OC(=O)C(N)=O)C(C)(C)[C@@H]5CC[C@]43C)[C@@H]12; 10.1
C=C(C)[C@@H]1CC[C@]2(COC(=O)NCC)CC[C@]3(C)[C@H](CC[C@@H]4[C@@]5(C)CC[C@H](OC(=O)C(N)=O)C(C)(C)[C@@H]5CC[C@]43C)[C@@H]12; 15.3
C=C(C)[C@@H]1CC[C@]2(COC(=O)NCCCCCC)CC[C@]3(C)[C@H](CC[C@@H]4[C@@]5(C)CC[C@H](OC(=O)C(N)=O)C(C)(C)[C@@H]5CC[C@]43C)[C@@H]12; 7.3

Exercise: Quick one: EC50 of C=C(C)[C@@H]1CC[C@]2(COC(C)=O)CC[C@]3(C)[C@H](CC[C@@H]4[C@@]5(C)CC[C@H](OC(C)=O)C(C)(C)[C@@H]5CC[C@]43C)[C@@H]12 [BETULIN DIACETATE] ?
Key: 25.7

* * *

system: A549; experiment: Cytotoxicity against human A549 cells after 96 hrs by SRB assay; format: functional, cell-based; conditions: A549, 96 h
Here the recorded pEC50 is given for each entry.
pEC50 is defined as minus the log10 of a concentration measured in mol/L.

Example cases with answers are listed next.
C=C(C)[C@@H]1CC[C@]2(COC(C)=O)CC[C@]3(C)[C@H](CC[C@@H]4[C@@]5(C)CC[C@H](OC(C)=O)C(C)(C)[C@@H]5CC[C@]43C)[C@@H]12 [BETULIN DIACETATE]; 4.67
C=C(C)[C@@H]1CC[C@]2(COC(=O)Nc3ccccc3)CC[C@]3(C)[C@H](CC[C@@H]4[C@@]5(C)CC[C@H](OC(=O)C(N)=O)C(C)(C)[C@@H]5CC[C@]43C)[C@@H]12; 4.69
C=C(C)[C@@H]1CC[C@]2(COC(=O)NCCC)CC[C@]3(C)[C@H](CC[C@@H]4[C@@]5(C)CC[C@H](OC(=O)C(N)=O)C(C)(C)[C@@H]5CC[C@]43C)[C@@H]12; 4.98
C=C(C)[C@@H]1CC[C@]2(COC(=O)NCCCC)CC[C@]3(C)[C@H](CC[C@@H]4[C@@]5(C)CC[C@H](OC(=O)C(N)=O)C(C)(C)[C@@H]5CC[C@]43C)[C@@H]12; 5.04
C=C(C)[C@@H]1CC[C@]2(COC(=O)NCCCCCC)CC[C@]3(C)[C@H](CC[C@@H]4[C@@]5(C)CC[C@H](OC(=O)C(N)=O)C(C)(C)[C@@H]5CC[C@]43C)[C@@H]12; 5.13

Exercise: Quick one: pEC50 of C=C(C)[C@@H]1CC[C@]2(COC(=O)NCC)CC[C@]3(C)[C@H](CC[C@@H]4[C@@]5(C)CC[C@H](OC(=O)C(N)=O)C(C)(C)[C@@H]5CC[C@]43C)[C@@H]12 ?
Key: 4.86

Data origin, for the record: ChEMBL document CHEMBL3797123
